# System: SW-620 colon
# assay-method-text: NCI tumour cell line growth inhibition, 48 h; in the data active = GI50 below about 0.43 µM; inactive = the rest
Outcome codes: active, inactive

1) CN(CC(=O)N(Cc1ccc(C2CCCCC2)cc1)c1ccc(C(=O)O)c(O)c1)S(=O)(=O)c1c(F)c(F)c(F)c(F)c1F : inactive
2) CCNC(=O)c1cc2c(-c3cc(C(C)(C)O)ccc3Oc3c(C)cc(F)cc3C)cn(C)c(=O)c2[nH]1 : inactive
3) Nc1nc(-c2ccccc2)nc(N)c1N=O : inactive
4) CCCCCCCCCCCC1CCCC(C)N1 (configuration not stated) : inactive
5) Cc1cccc2c(=O)c3c(sc12)c(NCCNCCO)nc1ccccc13 : inactive
6) Cn1ccnc1C(=O)/C=C/c1ccccc1 : inactive
7) Cc1cc(Cl)ccc1NC(=O)c1cc2ccccc2cc1O : inactive
8) COc1cc2c(cc1C)NC(=O)/C2=C\c1cccc(Oc2ccccc2)c1 : inactive
9) N#Cc1c(N)nc(N2CCOCC2)c(C#N)c1-c1cccnc1 : inactive
10) COc1cc(/C=C/C(=O)c2ccc(NC(=O)CN3CCN(c4cc5c(cc4F)c(=O)c(C(=O)O)cn5C4CC4)CC3)cc2)cc(OC)c1OC : inactive
11) COc1ccc(OC)c(/C=C(/C)[N+](=O)[O-])c1 : inactive
12) COc1ccc(Cn2cc3c(c2-c2ccc(OC)cc2)CCc2cnoc2-3)cc1 : active

* * *

# System: BT-549 breast
# assay-method-text: NCI tumour cell line growth inhibition, 48 h
Catalogue of log10(TGI) readings, one per entry.
property-measured: log10(TGI) (log10 of the value in µM)

1) N#C/C(=C\c1cc(Cl)cc(Cl)c1)c1ccccn1 : 1.69
2) Fc1ccc(Nc2nc3nonc3nc2Nc2ccc(F)cc2)cc1 : 0.44
3) O=[N+]([O-])c1c(Br)sc(Br)c1[N+](=O)[O-] : 1.47
4) O=C(Nc1ccccc1)NS(=O)(=O)c1ccc(-n2nc3c(c2-c2ccc(Cl)cc2)Cc2ccccc2-3)cc1 : 1.82
5) CC(=O)O[C@@H]1C2=C(C)C=C(O2)[C@H]2O[C@]2(C)C[C@H]2C=C(C(=O)O2)[C@H](OC(C)=O)CC1[C@@]1(C)CO1 (stereo not given in full) : 1.69
6) CCCCCCCCCCCCOP(=O)(O)OCC(N)C(=O)O (stereo not given) : 1.81
7) CN(C)c1ccc(Nc2cc(-c3cccc(OC(F)(F)F)c3)nc3ccc(N4CCCC4)cc23)cc1 : 0.55
8) COC(=O)c1ccc(C)cc1/C=C1\Cc2ccc(C)cc2C1=O : 1.48

* * *

# System: SNB-75 CNS
# assay-method-text: NCI tumour cell line growth inhibition, 48 h; in the data active = GI50 below about 0.43 µM; inactive = the rest
Outcome codes: True for active, False for inactive

1) Cc1c(COc2cc(OCc3cccc(C#N)c3)c(CN3C[C@H](O)C[C@@H]3C(=O)O)cc2Cl)cccc1-c1ccc2c(c1)OCCO2 : False
2) CCCCCCCCCCCC1CCCC(C)N1 (centres undefined) : False
3) COc1cc(C2=C(C#Cc3ccccc3)COC2=O)cc(OC)c1OC : False
4) CN(C)c1ccc(Nc2cc(-c3cccc(OC(F)(F)F)c3)nc3ccc(N4CCCC4)cc23)cc1 : False
5) NC(=O)c1cc(-c2ccc(F)cc2)cc(-c2ccncc2)c1N : False
6) COC(=O)C1=C(C)NC(C)=C(C(=O)OC)C1/C=C(Cl)/C=C/c1ccccc1 : False
7) Fc1ccc(Nc2nc3nonc3nc2Nc2ccc(F)cc2)cc1 : True
8) CC1(C)[C@@H](O[C@@H]2OC[C@@H](O[C@@H]3O[C@H](CO)[C@@H](O)[C@H](O)[C@H]3O[C@@H]3OC[C@@H](O)[C@H](O)[C@H]3O)[C@H](O)[C@H]2O[C@@H]2O[C@H](CO)[C@@H](O)[C@H](O)[C@H]2O)CC[C@]2(C)[C@H]3CC[C@]45OC[C@@]6(CC[C@](C)(C=O)C[C@H]64)[C@H](O)C[C@@]5(C)[C@]3(C)CC[C@@H]12 : False
9) COc1cc(O)c(C(=O)/C=C/c2ccc(O)cc2)c(O)c1[C@@H]1C[C@H](CCc2ccc(O)cc2)O[C@H](c2ccc(O)cc2)C1 : False
